B1: ZNF263 (parent)
chain: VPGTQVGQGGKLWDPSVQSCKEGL

variants of: B1; assay: protein stability index of a GFP-peptide fusion (GPS, HEK-293T) (PSI 1-6); higher = more stable; conditions: c terminus: a fixed tail appended;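 further: lentivirally expressed fusions sorted by FACS into six bins by GFP to DsRed ratio, PSI derived from sequencing read proportions per bin multiplied by bin number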
REPORTED METRIC: protein stability index

INSERT INTO assay_data (biopolymer_sequence, reported_metric, observed_result) VALUES
  ('VPGTQVGIGGKLWDPSVQSCKEGL', 'protein stability index', 4.15),
  ('VPGTQIGQGGKLWDPSVQSCKEGL', 'protein stability index', 4.28),
  ('VPGTFVGQGGKLWDPSVQSCKEGL', 'protein stability index', 3.3),
  ('VPGTQVGQGGKLWDPSVQSCKEGC', 'protein stability index', 3.9),
  ('VPGTQVGQGYKLWDPSVQSCKEGL', 'protein stability index', 3.55),
  ('VPGTQVGQGGKLWDPYVQSCKEGL', 'protein stability index', 3.68),
  ('VPGTQVGQGGKLWDASVQSCKEGL', 'protein stability index', 4.22),
  ('VPGTQVGQGGKLWDPSVQTCKEGL', 'protein stability index', 4.29),
  ('VPGTQVGWGGKLWDPSVQSCKEGL', 'protein stability index', 3.67),
  ('VPGTQVGQGMKLWDPSVQSCKEGL', 'protein stability index', 4.28),
  ('VPGTQVGQGGKLWDPFVQSCKEGL', 'protein stability index', 3.12),
  ('VPGTQVGQGGKLWDPSLQSCKEGL', 'protein stability index', 4.08),
  ('VPGTQVGQGGKLNDPSVQSCKEGL', 'protein stability index', 5.12),
  ('VPGNQVGQGGKLWDPSVQSCKEGL', 'protein stability index', 4.44),
  ('VPGTQVGQGGKLWDPSVTSCKEGL', 'protein stability index', 4.47),
  ('WPGTQVGQGGKLWDPSVQSCKEGL', 'protein stability index', 4.23),
  ('VPGTQVGQGGKLWDPSVQECKEGL', 'protein stability index', 4.38),
  ('VPGTQVGQGGKLIDPSVQSCKEGL', 'protein stability index', 4.66),
  ('VPGTQVGQGGKLWDPSVQSKKEGL', 'protein stability index', 4.13),
  ('VPGTQVGQGVKLWDPSVQSCKEGL', 'protein stability index', 3.71),
  ('VPGTQVGQGGKLWDPSVQSCKEGR', 'protein stability index', 4.92),
  ('VPGTQYGQGGKLWDPSVQSCKEGL', 'protein stability index', 3.82),
  ('VPGTQVGQGGKLWDPSVQSCKEGD', 'protein stability index', 5.51),
  ('VPGTQVGQGFKLWDPSVQSCKEGL', 'protein stability index', 2.93),
  ('VPGTQVGQGGKLWDPSVQSFKEGL', 'protein stability index', 3.1),
  ('CPGTQVGQGGKLWDPSVQSCKEGL', 'protein stability index', 4.28),
  ('VPGTQVGQGGKLWDPSVQSCLEGL', 'protein stability index', 3.69),
  ('VPGTQVGQGGKLWDPSVQICKEGL', 'protein stability index', 3.77),
  ('VPGTQVGQGGKLWDLSVQSCKEGL', 'protein stability index', 4.8),
  ('VPGTQVGQGGKLWDPSVQSCKDGL', 'protein stability index', 4.25),
  ('VPGTNVGQGGKLWDPSVQSCKEGL', 'protein stability index', 4.23),
  ('VPGTQVGQGGKLRDPSVQSCKEGL', 'protein stability index', 4.71),
  ('VPGTQVGQGGKLWDPSVQSRKEGL', 'protein stability index', 4.04),
  ('VPGTQVGQGGKLWDPSVQSCKETL', 'protein stability index', 3.96),
  ('VPKTQVGQGGKLWDPSVQSCKEGL', 'protein stability index', 3.77),
  ('VPGTQVGQGGKLWDPVVQSCKEGL', 'protein stability index', 4.02),
  ('VPGTQVGQNGKLWDPSVQSCKEGL', 'protein stability index', 3.47),
  ('VPGTQVGQGGKLWDPSVQSCKEGV', 'protein stability index', 4.35),
  ('VPGTQNGQGGKLWDPSVQSCKEGL', 'protein stability index', 4.47),
  ('VPGTQVGQGGQLWDPSVQSCKEGL', 'protein stability index', 4.54),
  ('VPGTQVGQGGKLWDPSVQSCKEGS', 'protein stability index', 4.99),
  ('VPGTQVGQGGKLWDPSVWSCKEGL', 'protein stability index', 3),
  ('VPGTQVGQGGKSWDPSVQSCKEGL', 'protein stability index', 4.3),
  ('VPGTQVGLGGKLWDPSVQSCKEGL', 'protein stability index', 3.79),
  ('VPGTQVGQGGKLWDPSVQSAKEGL', 'protein stability index', 4.15),
  ('VPGTKVGQGGKLWDPSVQSCKEGL', 'protein stability index', 4.21),
  ('VPGTQVGQGGKLWDPSVQGCKEGL', 'protein stability index', 4.41),
  ('VPATQVGQGGKLWDPSVQSCKEGL', 'protein stability index', 4.21),
  ('VPGTQVGQGGKLWDPSVQSCKVGL', 'protein stability index', 3.79),
  ('VPGTQVGQGGKLWDPSVQSCGEGL', 'protein stability index', 3.99),
  ('VPGTQVGQGGKLDDPSVQSCKEGL', 'protein stability index', 4.4),
  ('VPGTQVGQGGKLWDPSVQSCYEGL', 'protein stability index', 3.4),
  ('VPETQVGQGGKLWDPSVQSCKEGL', 'protein stability index', 4.88),
  ('VPGTQVGQGCKLWDPSVQSCKEGL', 'protein stability index', 3.24),
  ('VPGTQVGQGGKLWDPSVQSCKEHL', 'protein stability index', 3.64),
  ('VPGTQVGQGGKLCDPSVQSCKEGL', 'protein stability index', 4.76),
  ('VGGTQVGQGGKLWDPSVQSCKEGL', 'protein stability index', 4.28),
  ('VPGPQVGQGGKLWDPSVQSCKEGL', 'protein stability index', 4.29),
  ('VPGTQVGQGGKLWDPSVQSCKEFL', 'protein stability index', 2.69),
  ('VPGTQVGQGGKLWDPSMQSCKEGL', 'protein stability index', 4.06),
  ('VPGTQVGQGTKLWDPSVQSCKEGL', 'protein stability index', 4.31),
  ('VPGTQVQQGGKLWDPSVQSCKEGL', 'protein stability index', 3.69),
  ('VPGTQVGQGGVLWDPSVQSCKEGL', 'protein stability index', 3.61),
  ('VPGTQVGQGGKLWSPSVQSCKEGL', 'protein stability index', 3.99),
  ('VPGTQVGQGGKLWDPSVQYCKEGL', 'protein stability index', 3.76),
  ('VPGTQVGQSGKLWDPSVQSCKEGL', 'protein stability index', 4.23),
  ('VPGTQVGQGGILWDPSVQSCKEGL', 'protein stability index', 4.26),
  ('VPGTQVGQGGKLSDPSVQSCKEGL', 'protein stability index', 4.54),
  ('VPGTQVGQGGKLWDPSFQSCKEGL', 'protein stability index', 3.38),
  ('VPGTQVGQGGKLWPPSVQSCKEGL', 'protein stability index', 3.44),
  ('VPGTQVGQGGLLWDPSVQSCKEGL', 'protein stability index', 4.13),
  ('VPGTQAGQGGKLWDPSVQSCKEGL', 'protein stability index', 3.97),
  ('VPGTQVGQGGKLADPSVQSCKEGL', 'protein stability index', 4.8),
  ('VPGTQVGQGGKLTDPSVQSCKEGL', 'protein stability index', 4.79),
  ('VPGTQVGQGGKLWDESVQSCKEGL', 'protein stability index', 4.94),
  ('VPGTQVGQGGKLWDPSVASCKEGL', 'protein stability index', 3.46),
  ('VPGGQVGQGGKLWDPSVQSCKEGL', 'protein stability index', 4.26),
  ('VPGTQVGQGGKLWDPSPQSCKEGL', 'protein stability index', 4.24),
  ('VPGTQVGQGGKLWDPSVQSCKEAL', 'protein stability index', 3.89),
  ('VPGTQVGQGGKLWDPSVQSCAEGL', 'protein stability index', 3.91),
  ('VNGTQVGQGGKLWDPSVQSCKEGL', 'protein stability index', 4.18),
  ('VPGTQVGQGGKLWDPSVQSCKHGL', 'protein stability index', 3.98),
  ('VPGTQVGQGGKLWDPSVQNCKEGL', 'protein stability index', 4.39),
  ('VPGKQVGQGGKLWDPSVQSCKEGL', 'protein stability index', 3.96),
  ('VPGTQVFQGGKLWDPSVQSCKEGL', 'protein stability index', 3.36),
  ('VPGTQVGQCGKLWDPSVQSCKEGL', 'protein stability index', 3.73),
  ('VPGTQVGQGGKLWDPSVHSCKEGL', 'protein stability index', 3.89),
  ('VPGTQVSQGGKLWDPSVQSCKEGL', 'protein stability index', 4.41),
  ('VPCTQVGQGGKLWDPSVQSCKEGL', 'protein stability index', 4.12),
  ('VPGTQVGQGGKLWEPSVQSCKEGL', 'protein stability index', 3.78),
  ('VPGTQVGQGGKLWDPNVQSCKEGL', 'protein stability index', 3.89);
